# Test system: LOU-NH91
# experiment.summary: relative viability (nuclei count vs DMSO), 5 days (fraction); higher = more cells survive
# condition.label: first compound 0.08 µM
quantity: relative viability
Respond numerically, and do not add a unit to the figure.

Here are 5 compounds together with their reported answers.
Query :: Find relative viability for C=C1C(=O)O[C@@H](CCCCCCCC)[C@@H]1C(=O)O [C-75] + Nc1ncn([C@H]2C[C@H](O)[C@@H](CO)O2)c(=O)n1 [Decitabine] (partner 2 µM) on LOU-NH91 and write it down.
Result :: 0.83

Query :: Find relative viability for C=C1C(=O)O[C@@H](CCCCCCCC)[C@@H]1C(=O)O [C-75] + N=C(N)NC(=N)NCCc1ccccc1 [Phenformin] (partner 250 µM) on LOU-NH91 and write it down.
Result :: 0.715

Query :: Find relative viability for C=C1C(=O)O[C@@H](CCCCCCCC)[C@@H]1C(=O)O [C-75] + CC1(C)CCC(c2ccc(Cl)cc2)=C(CN2CCN(c3ccc(C(=O)NS(=O)(=O)c4ccc(N[C@H](CCN5CCOCC5)CSc5ccccc5)c(S(=O)(=O)C(F)(F)F)c4)cc3)CC2)C1 [Navitoclax] (partner 0.5 µM) on LOU-NH91 and write it down.
Result :: 0.756

Query :: Find relative viability for C=C1C(=O)O[C@@H](CCCCCCCC)[C@@H]1C(=O)O [C-75] + CC(C)C[C@H](NC(=O)[C@H](Cc1ccccc1)NC(=O)c1cnccn1)B(O)O [Bortezomib] (partner 0.002 µM) on LOU-NH91 and write it down.
Result :: 0.47

Query :: Find relative viability for Oc1nc(-c2ccc(C(F)(F)F)cc2)nc2c1CSCC2 [XAV939] + CC(=O)c1c(C)c2cnc(Nc3ccc(N4CCNCC4)cn3)nc2n(C2CCCC2)c1=O [Palbociclib] (partner 0.5 µM) on LOU-NH91 and write it down.
Result :: 0.609

Continuing:
Query :: Find relative viability for Oc1nc(-c2ccc(C(F)(F)F)cc2)nc2c1CSCC2 [XAV939] + CC1(C)CCC(c2ccc(Cl)cc2)=C(CN2CCN(c3ccc(C(=O)NS(=O)(=O)c4ccc(N[C@H](CCN5CCOCC5)CSc5ccccc5)c(S(=O)(=O)C(F)(F)F)c4)cc3)CC2)C1 [Navitoclax] (partner 0.5 µM) on LOU-NH91 and write it down.
Result :: 0.636

Query :: Find relative viability for Oc1nc(-c2ccc(C(F)(F)F)cc2)nc2c1CSCC2 [XAV939] + C[C@]1(O)C[C@@H](c2nc(-c3ccc4ccc(-c5ccccc5)nc4c3)c3c(N)nccn32)C1 [Linsitinib] (partner 1 µM) on LOU-NH91 and write it down.
Result :: 0.903

Query :: Find relative viability for C=C1C(=O)O[C@@H](CCCCCCCC)[C@@H]1C(=O)O [C-75] + CC(=O)c1c(C)c2cnc(Nc3ccc(N4CCNCC4)cn3)nc2n(C2CCCC2)c1=O [Palbociclib] (partner 0.5 µM) on LOU-NH91 and write it down.
Result :: 0.534

Query :: Find relative viability for Oc1nc(-c2ccc(C(F)(F)F)cc2)nc2c1CSCC2 [XAV939] + Cc1cc(Nc2cc(N3CCN(C)CC3)nc(Sc3ccc(NC(=O)C4CC4)cc3)n2)n[nH]1 [Tozasertib] (partner 0.1 µM) on LOU-NH91 and write it down.
Result :: 0.655

Query :: Find relative viability for Oc1nc(-c2ccc(C(F)(F)F)cc2)nc2c1CSCC2 [XAV939] + O=C(CCCCCCC(=O)Nc1ccccc1)NO [Vorinostat] (partner 1 µM) on LOU-NH91 and write it down.
Result :: 0.952
